biological target: AR protein (Homo sapiens, UniProt P10275, T878A); construct: The percent AR protein degradation induced by these compounds at various concentrations in LNCaP cells; host or cells: LNCaP; test: AR protein degradation in LNCaP cells (Western blotting); type: cell-based; settings: LNCaP; 1 μM, treatment time 6 h, average of three independent experiments; read-out: % AR protein degradation in LNCaP Cells
Sequence (P10275 whole entry T878A): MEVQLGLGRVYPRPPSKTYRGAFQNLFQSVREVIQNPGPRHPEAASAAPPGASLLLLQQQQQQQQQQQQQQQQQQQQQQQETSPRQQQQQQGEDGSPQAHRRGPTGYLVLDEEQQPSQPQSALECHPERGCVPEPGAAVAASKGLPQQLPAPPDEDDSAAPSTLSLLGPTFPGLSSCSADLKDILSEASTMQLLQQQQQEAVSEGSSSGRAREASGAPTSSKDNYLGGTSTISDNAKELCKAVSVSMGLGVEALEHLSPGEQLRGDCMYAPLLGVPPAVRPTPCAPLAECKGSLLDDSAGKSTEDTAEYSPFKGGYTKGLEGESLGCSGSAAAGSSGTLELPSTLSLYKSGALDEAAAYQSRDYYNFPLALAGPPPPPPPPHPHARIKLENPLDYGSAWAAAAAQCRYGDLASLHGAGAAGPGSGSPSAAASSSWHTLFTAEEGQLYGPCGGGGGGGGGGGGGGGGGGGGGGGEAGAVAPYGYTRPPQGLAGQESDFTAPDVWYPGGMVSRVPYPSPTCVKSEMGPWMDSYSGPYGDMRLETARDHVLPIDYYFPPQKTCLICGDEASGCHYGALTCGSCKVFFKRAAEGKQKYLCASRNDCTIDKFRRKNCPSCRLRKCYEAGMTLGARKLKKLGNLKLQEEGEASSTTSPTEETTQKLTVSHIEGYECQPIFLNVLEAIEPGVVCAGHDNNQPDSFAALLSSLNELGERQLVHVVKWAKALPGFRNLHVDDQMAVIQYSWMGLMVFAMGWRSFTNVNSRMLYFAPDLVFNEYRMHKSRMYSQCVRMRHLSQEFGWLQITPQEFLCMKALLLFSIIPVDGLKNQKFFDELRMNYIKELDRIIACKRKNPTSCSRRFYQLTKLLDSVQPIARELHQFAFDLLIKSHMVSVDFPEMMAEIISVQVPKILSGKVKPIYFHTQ
PROPERTY: Dmax at 1 µM (%)
Answer in %, number only, no unit symbol.

>>> quantitative_result("Cc1ncsc1-c1ccc(CNC(=O)C2C[C@@H](O)CN2C(=O)[C@@H](NC(=O)CCCCCCNC(=O)c2ccc(N3C(=S)N(c4ccc(C#N)c(C(F)(F)F)c4)C(=O)C3(C)C)cc2F)C(C)(C)C)cc1 (stereo partly shown) [Compound 12]")
84
>>> quantitative_result("Cc1cc([C@H](C(=O)N2C[C@H](O)C[C@H]2C(=O)N[C@@H](CC(=O)NCCCCCCCCCNC(=O)c2ccc(N3C(=S)N(c4ccc(C#N)c(C(F)(F)F)c4)C(=O)C3(C)C)cc2F)c2ccc(-c3scnc3C)cc2)C(C)C)on1 [Compound 26]")
87
>>> quantitative_result("Cc1ncsc1-c1ccc([C@H](C)NC(=O)C2C[C@@H](O)CN2C(=O)[C@@H](NC(=O)CN2CCN(c3ccc(C#Cc4ccc(N5C(=S)N(c6ccc(C#N)c(C(F)(F)F)c6)C(=O)C5(C)C)cc4)cn3)CC2)C(C)(C)C)cc1 (stereo partly shown) [Compound 24]")
31

# context switch: different compound, same Dmax at 1 µM
Dmax at 1 µM for Cc1ncsc1-c1ccc(CNC(=O)C2C[C@@H](O)CN2C(=O)[C@@H](NC(=O)CCCCCCCCCCCNC(=O)c2ccc(N3C(=S)N(c4ccc(C#N)c(C(F)(F)F)c4)C(=O)C3(C)C)cc2F)C(C)(C)C)cc1 (stereo partly shown) [Compound 17] is 69

* * *

molecular target: AR protein (Homo sapiens, UniProt P10275, T878A); construct: The percent AR protein degradation induced by these compounds at various concentrations in LNCaP cells; host or cells: LNCaP; assay: AR protein degradation in LNCaP cells (Western blotting); format: cell-based; conditions: LNCaP; 0.01 μM, treatment time 6 h, average of three independent experiments
Just a reminder that ties go to not met: only Dmax at 0.01 µM strictly below 20% counts as met.

Does the reported Dmax at 0.01 µM of the following compound sit strictly below 20%? Cc1cc([C@H](C(=O)N2C[C@H](O)C[C@H]2C(=O)N[C@@H](CC(=O)NCCCCCCCCCNC(=O)c2ccc(C(=O)N[C@H]3C(C)(C)[C@H](Oc4ccc(C#N)c(Cl)c4)C3(C)C)cc2)c2ccc(-c3scnc3C)cc2)C(C)C)on1
not met

* * *

molecular target: AR protein (Homo sapiens, UniProt P10275, T878A); construct: The percent AR protein degradation induced by these compounds at various concentrations in LNCaP cells; host or cells: LNCaP; assay: AR protein degradation in LNCaP cells (Western blotting); format: cell-based; details: LNCaP; 1 μM, treatment time 6 h, average of three independent experiments; read-out: % AR protein degradation in LNCaP Cells
Here, each record is paired with measured Dmax at 1 µM data.
Answer in %, number only, no unit symbol.

>>> quantitative_result("Cc1ncsc1-c1ccc(CNC(=O)C2C[C@@H](O)CN2C(=O)[C@@H](NC(=O)CCCN2CCN(c3ccc(C#Cc4ccc(N5C(=S)N(c6ccc(C#N)c(C(F)(F)F)c6)C(=O)C5(C)C)cc4)cn3)CC2)C(C)(C)C)cc1 (stereo partly drawn) [Compound 20]")
80
>>> quantitative_result("Cc1ncsc1-c1ccc(CNC(=O)C2C[C@@H](O)CN2C(=O)[C@@H](NC(=O)CCCCCCc2ccc(C#Cc3ccc(N4C(=S)N(c5ccc(C#N)c(C(F)(F)F)c5)C(=O)C4(C)C)cc3)cn2)C(C)(C)C)cc1 (stereo partly drawn) [Compound 19]")
96
>>> quantitative_result("Cc1ncsc1-c1ccc(CNC(=O)C2C[C@@H](O)CN2C(=O)[C@@H](NC(=O)CCCCCCCNC(=O)c2ccc(N3C(=S)N(c4ccc(C#N)c(C(F)(F)F)c4)C(=O)C3(C)C)cc2F)C(C)(C)C)cc1 (stereo partly drawn) [Compound 13]")
65
>>> quantitative_result("Cc1ncsc1-c1ccc([C@H](C)NC(=O)C2C[C@@H](O)CN2C(=O)[C@@H](NC(=O)CCCN2CCN(c3ccc(C#Cc4ccc(N5C(=S)N(c6ccc(C#N)c(C(F)(F)F)c6)C(=O)C5(C)C)cc4)cn3)CC2)C(C)(C)C)cc1 (stereo partly drawn) [Compound 21]")
92
>>> quantitative_result("Cc1cc([C@H](C(=O)N2C[C@H](O)C[C@H]2C(=O)N[C@@H](CC(=O)N2CCC(N3CCC(C#Cc4ccc(N5C(=S)N(c6cnc(C#N)c(C(F)(F)F)c6)C(=O)C56CCC6)cc4)CC3)CC2)c2ccc(-c3scnc3C)cc2)C(C)C)on1 [Compound 30]")
95
>>> quantitative_result("Cc1ncsc1-c1ccc(CNC(=O)C2C[C@@H](O)CN2C(=O)[C@@H](NC(=O)CCCCCCCCNC(=O)c2ccc(N3C(=S)N(c4ccc(C#N)c(C(F)(F)F)c4)C(=O)C3(C)C)cc2F)C(C)(C)C)cc1 (stereo partly drawn) [Compound 14]")
87
>>> quantitative_result("Cc1ncsc1-c1ccc(CNC(=O)C2C[C@@H](O)CN2C(=O)[C@@H](NC(=O)CCCNC(=O)c2ccc(N3C(=S)N(c4ccc(C#N)c(C(F)(F)F)c4)C(=O)C3(C)C)cc2F)C(C)(C)C)cc1 (stereo partly drawn) [Compound 9]")
23
>>> quantitative_result("Cc1ncsc1-c1ccc(CNC(=O)C2C[C@@H](O)CN2C(=O)[C@@H](NC(=O)CCOCCOCCNC(=O)c2ccc(N3C(=S)N(c4ccc(C#N)c(C(F)(F)F)c4)C(=O)C3(C)C)cc2F)C(C)(C)C)cc1 (stereo partly drawn) [Compound 18]")
35

# context switch: different compound, same Dmax at 1 µM
Dmax at 1 µM for Cc1ncsc1-c1ccc(CNC(=O)C2C[C@@H](O)CN2C(=O)[C@@H](NC(=O)CCCCCNC(=O)c2ccc(N3C(=S)N(c4ccc(C#N)c(C(F)(F)F)c4)C(=O)C3(C)C)cc2F)C(C)(C)C)cc1 (stereo partly drawn) [Compound 11] is 25
